Biological target: PIK3AP1
Experiment: pooled miR-30 sensor sort-seq; sequence = guide strand
Conditions: shRNA
Use met when the recorded sensor-assay potency score (higher = more potent) is no lower than -0.2; use not met when it is lower.

Some solved cases for reference:
{"sequence_string": "TAGCCGTTTAAGATTTTCCTGC", "label": "met"}
{"sequence_string": "TTCCTCTTTAATGTGACTCTTG", "label": "met"}
{"sequence_string": "TTGTCATCATATCTTCTTCTTC", "label": "not met"}

Please indicate if the recorded sensor-assay potency score (higher = more potent) for TTCGATTAAGTCTTCATCCTTT meets or exceeds -0.2.
met

Cool, now TTACTTGTGCTACTTGCTGTGC
not met

Cool, now TTAAGGTCAACAGTCATGCTAT
not met

Cool, now AAGTCTAGGAACTCCTCGCTGT
met

Cool, now TAGACGATGAGGATGTCGCATC
not met

Cool, now TTGCCTTCTAAAAACTTGCGGA
not met

====

Target: ARPC1A
Test: pooled miR-30 sensor sort-seq; sequence = guide strand
Settings: shRNA
parameter: sensor-assay potency score (higher = more potent)
Answer with a bare number; do not write a unit.

{"sequence_string": "TTGGCTTCCAAACACCATCTTT", "assayed_system": "ARPC1A", "numeric_result": -0.586}
{"sequence_string": "TAACAAACAGAAATGAGTCGTG", "assayed_system": "ARPC1A", "numeric_result": 0.708}
{"sequence_string": "TATAGATGTGCACTTCGTGATT", "assayed_system": "ARPC1A", "numeric_result": -0.958}
{"sequence_string": "ATTTGAAGTCACATGATCCTGC", "assayed_system": "ARPC1A", "numeric_result": 0.383}
{"sequence_string": "TTTGGAATATCTAACTTGGAGA", "assayed_system": "ARPC1A", "numeric_result": -0.835}

Would you kindly share the measured sensor-assay potency score (higher = more potent) for TTTAATGTGCTTGCTCACCCAC ?
-0.282

Cool, now TATTCAAACAAAACCACACGGC
-0.11

Cool, now TTTTGGAATATCTAACTTGGAG
-0.944

====

Molecular target: KCNRG
Test: pooled miR-30 sensor sort-seq; sequence = guide strand
Conditions: shRNA
parameter: sensor-assay potency score (higher = more potent)

{"sequence_string": "TAGAAACATACCTGACTCCAGT", "result": -0.214}

Would you kindly share the measured sensor-assay potency score (higher = more potent) for TTTTATAGAAACATACCTGACT ?
-0.489

Cool, now TTCGTGATGAGCACTTCAGGGC
0.363

Cool, now TTTTGTCTTCAGAAGATACTGT
0.229

Cool, now TTTTGGTGTTTCATTCGTGATG
-1.02

Cool, now TTTGTCTTCAGAAGATACTGTT
-0.101

Cool, now TACTGTTCTAGTGCTGACCAAA
-1.23

Cool, now TATGATGATAGTCTCTGGTTTT
-0.744

====

Target: C15orf54
Experiment: pooled miR-30 sensor sort-seq; sequence = guide strand
Conditions: shRNA
Measured sensor-assay potency score (higher = more potent) accompanies every entry in the list below.
Answer with a bare number; do not write a unit.

Worked cases, sensor-assay potency score (higher = more potent) given:
{"sequence_string": "TATACTTATTCTCACATCCTTT", "numeric_result": -0.462}
{"sequence_string": "TTGAAAGGGACATCTGTTGGAT", "numeric_result": 0.0555}
{"sequence_string": "TTCAAGATCAAACTAGGCCATG", "numeric_result": -1.17}
{"sequence_string": "TTCAGTTTGTGACTTTTGCTGG", "numeric_result": 0.098}
{"sequence_string": "TTAAGCAATGAGCTCAATCTAG", "numeric_result": -0.475}

Would you kindly share the measured sensor-assay potency score (higher = more potent) for TATTTGAACATATAAGATGTTA ?
-0.68

Cool, now TTCTGTAGGCACTACATTCTGG
-0.0345

====

Biological target: SYN3
Experiment: pooled miR-30 sensor sort-seq; sequence = guide strand
Settings: shRNA
parameter: sensor-assay potency score (higher = more potent)
Answer with a bare number; do not write a unit.

Would you kindly share the measured sensor-assay potency score (higher = more potent) for TTTGGAGACAACAAGGTCGGCC ?
-0.0801

====

Biological target: HS6ST1
Experiment: pooled miR-30 sensor sort-seq; sequence = guide strand
Conditions: shRNA
Measured sensor-assay potency score (higher = more potent) accompanies every entry in the list below.
Answer with a bare number; do not write a unit.

Worked cases, sensor-assay potency score (higher = more potent) given:
{"sequence_string": "TTGAGCTCCTCGATGCGCCGGA", "numeric_result": 0.162}
{"sequence_string": "TAGTGTGATGCATCCACCCAGG", "numeric_result": -0.887}

GET /values?readout=sensor-assay potency score (higher = more potent)&system=HS6ST1&item= TTTTTTTGTATGAATAACCAAA
-1.12

Cool, now ATGAGCATGAAGCACACCGAGC
-1.78

Cool, now TACTTCTTCTCGTAGTGGGGGT
-0.105

Cool, now TAGCAGGTGCACTTCTTCTGGC
-0.598

Cool, now TTGAGGTTGAACGTCCGCTCGA
-0.171

Cool, now TGATGTAGTAGAACTTCCTGGG
0.812

====

Measured sensor-assay potency score (higher = more potent) accompanies every entry in the list below.
Biological target: ASB15
Test: pooled miR-30 sensor sort-seq; sequence = guide strand
Details: shRNA
Answer with a bare number; do not write a unit.

Worked cases, sensor-assay potency score (higher = more potent) given:
{"sequence_string": "TGTATCTTTGAATAGCTGGTGG", "numeric_result": -0.176}
{"sequence_string": "TTTATATTTTACATACTCCTGG", "numeric_result": -0.0391}
{"sequence_string": "TTACACAAGATGTCCATCCTGG", "numeric_result": 0.839}
{"sequence_string": "TATGTATCTTTGAATAGCTGGT", "numeric_result": -0.171}
{"sequence_string": "TTAGCTGAATATCATAACTTGT", "numeric_result": -0.69}
{"sequence_string": "TTTATTACACAAGATGTCCATC", "numeric_result": -0.601}

Could you now consider this next sequence?
Would you kindly share the measured sensor-assay potency score (higher = more potent) for TATCTTTGAATAGCTGGTGGTA ?
-0.545

====

Molecular target: ACACB
Test: pooled miR-30 sensor sort-seq; sequence = guide strand
Conditions: shRNA
Measured sensor-assay potency score (higher = more potent) accompanies every entry in the list below.
Answer with a bare number; do not write a unit.

{"sequence_string": "TTGTCATAAACATCTTCTGGGA", "numeric_result": -0.671}

Would you kindly share the measured sensor-assay potency score (higher = more potent) for TTGGATGTGTAGACCTCTCTTC ?
0.36

Cool, now TTTGTCTGCATACATTTCTATG
-1.38

Cool, now TTTGCTTCTGATTTACTCTTGG
0.795

====

Target: SCAPER
Experiment: pooled miR-30 sensor sort-seq; sequence = guide strand
Conditions: shRNA
Use 1 (yes) when the recorded sensor-assay potency score (higher = more potent) is no lower than -0.04; use 0 (no) when it is lower.

Please indicate if the recorded sensor-assay potency score (higher = more potent) for TTGAGCATCTGTCTTCTCTAGC meets or exceeds -0.04.
0 (no)

Cool, now TTGATCTAGCAATTCTTCCTTC
1 (yes)

Cool, now ATAATCTGCAAGGACATCGTTC
0 (no)

Cool, now TTAACAATTCTTCTACACGGGC
0 (no)

Cool, now TTGAGTGTAATTCTCCTTGGGA
1 (yes)

====

Measured sensor-assay potency score (higher = more potent) accompanies every entry in the list below.
Target: PEG3
Experiment: pooled miR-30 sensor sort-seq; sequence = guide strand
Details: shRNA

Worked cases, sensor-assay potency score (higher = more potent) given:
{"sequence_string": "TTATCATCTGACATTCTGGGGA", "result": 0.23}
{"sequence_string": "TTCACTGACAGCCACACTGTGG", "result": -0.755}
{"sequence_string": "TTGTGTTGAGGTCTTCGCTGGT", "result": 0.119}
{"sequence_string": "TTATAGTATGACTCTTCTGAGA", "result": -1.1}

Would you kindly share the measured sensor-assay potency score (higher = more potent) for TTTCTTTTTAGCACGAGCCTTC ?
-0.635

Cool, now TTCTTCTACCTGAATCTCTTGA
0.127

====

Biological target: PHF20
Experiment: pooled miR-30 sensor sort-seq; sequence = guide strand
Conditions: shRNA
parameter: sensor-assay potency score (higher = more potent)
Answer with a bare number; do not write a unit.

Worked cases, sensor-assay potency score (higher = more potent) given:
{"sequence_string": "TTGAATTTACAACTGTCTCCAA", "numeric_result": 0.401}
{"sequence_string": "TTAATGGGACTTCACATCCTTT", "numeric_result": -1.47}

Could you now consider this next sequence?
Would you kindly share the measured sensor-assay potency score (higher = more potent) for TTTTAAACAGTCCACAACTTTG ?
-1.74

Source of measurements: the OligoGym collection
